Experiment: Expected valence charge of analytes and ions based on pKas
Type: physicochemical
Conditions: pH 1

compound | Valence charge at pH
O=C1O[C@H]([C@@H](O)CO)C(O)=C1O [L-Ascorbic acid] | 0
O=C(O)C(=O)O [Oxalic acid] | 0
Oc1ccc(O)cc1 [Hydroquinone] | 0
O=C(O)CC(O)(CC(=O)O)C(=O)O [Citric Acid] | 0

====

Test: Expected valence charge of analytes and ions based on pKas
Type: physicochemical
Details: pH 12
Reported Valence charge at pH is given for each of the following molecules.
measure_name: Valence charge at pH

molecule | value_reported
O=C(O)CC(O)(CC(=O)O)C(=O)O | −3
Oc1ccc(O)cc1 [Hydroquinone] | −1
O=C1O[C@H]([C@@H](O)CO)C(O)=C1O | −2
O=C(O)C(=O)O | −1

====

Test: Expected valence charge of analytes and ions based on pKas
Format: physicochemical
Conditions: pH 7, 8, 9, 10

molecule | Valence charge at pH
O=C(O)C(=O)O | −1
O=C1O[C@H]([C@@H](O)CO)C(O)=C1O | −1
O=C(O)CC(O)(CC(=O)O)C(=O)O | −3
Oc1ccc(O)cc1 [Hydroquinone] | 0

====

The following molecules are shown together with reported Valence charge at pH values.
Test: Expected valence charge of analytes and ions based on pKas
Format: physicochemical
Conditions: pH 11

molecule | Valence charge at pH
O=C(O)CC(O)(CC(=O)O)C(=O)O | −3
Oc1ccc(O)cc1 [Hydroquinone] | −1
O=C(O)C(=O)O | −1
O=C1O[C@H]([C@@H](O)CO)C(O)=C1O | −1

====

Experiment: Density and estimated spherical radius of analytes and supporting ions
Format: physicochemical
Returns one of Yes or No; Yes when Estimated spherical radius is >= 0.3 nm.

molecule | label_value
[Na+] | No
F | No
Cl | No
O=C1O[C@H]([C@@H](O)CO)C(O)=C1O | Yes
Oc1ccc(O)cc1 [Hydroquinone] | Yes
O=C(O)C(=O)O | No
O=C(O)CC(O)(CC(=O)O)C(=O)O | Yes
[K+] | No

====

Assay: Expected valence charge of analytes and ions based on pKas
Assay type: physicochemical
Conditions: pH 5, 6

molecule | Valence charge at pH
O=C1O[C@H]([C@@H](O)CO)C(O)=C1O | −1
O=C(O)C(=O)O | −1
Oc1ccc(O)cc1 [Hydroquinone] | 0
O=C(O)CC(O)(CC(=O)O)C(=O)O | −2

====

Assay: Expected valence charge of analytes and ions based on pKas
Assay type: physicochemical
Settings: pH 2, 3
// reported Valence charge at pH per item

molecule | Valence charge at pH
O=C(O)C(=O)O | −1
O=C1O[C@H]([C@@H](O)CO)C(O)=C1O | 0
Oc1ccc(O)cc1 [Hydroquinone] | 0
O=C(O)CC(O)(CC(=O)O)C(=O)O | 0

====

Test: Expected valence charge of analytes and ions based on pKas
Type: physicochemical
Settings: maximal negative charge, intraluminal pH of 12

compound | Expected valence charge
[Na+] | 1
[K+] | 1
F | −1
O=C(O)CC(O)(CC(=O)O)C(=O)O | −3
Oc1ccc(O)cc1 [Hydroquinone] | −1
O=C1O[C@H]([C@@H](O)CO)C(O)=C1O | −2
O=C(O)C(=O)O | −1

====

Test: Expected valence charge of analytes and ions based on pKas
Format: physicochemical
Conditions: pH 4
# key: entry, value: Valence charge at pH
measure_name: Valence charge at pH

compound | measure_name | value_reported
O=C1O[C@H]([C@@H](O)CO)C(O)=C1O | Valence charge at pH | 0
O=C(O)C(=O)O | Valence charge at pH | −1
Oc1ccc(O)cc1 [Hydroquinone] | Valence charge at pH | 0
O=C(O)CC(O)(CC(=O)O)C(=O)O | Valence charge at pH | −1

====

Test: Expected valence charge of analytes and ions based on pKas
Type: physicochemical
Conditions: used in the empirical model, Example 2

compound | Valence charge level (Zanalyte)
O=C(O)C(=O)O [Oxalic acid] | −1
Oc1ccc(O)cc1 [Hydroquinone] | −1
O=C1O[C@H]([C@@H](O)CO)C(O)=C1O [L-Ascorbic acid] | −2
O=C(O)CC(O)(CC(=O)O)C(=O)O [Citric Acid] | −3
